Assay: MRT (0 to last) in 12 hrs fasted C57BL/6 mouse at 1 mg/kg, po measured upto 24 hrs by LC-MS/MS analysis
Assay type: ADME, organism-based
Details: in vivo
recordedEndpoint: MRT last at 24 h (h)
The response must be a number in h with no trailing unit.

Problem: Requested field: MRT last at 24 h. Item: O=C(Nc1ccc2[nH]ncc2c1)N1CCN(c2cccc(Cl)c2Cl)CC1
Result: 3.36

====

Assay: Cmax in 12 hrs fasted C57BL/6 mouse at 1 mg/kg, po measured upto 24 hrs by LC-MS/MS analysis
Type: ADME, organism-based
Parameters: dose 1 mg/kg, time < 24 hrs, route po
Settings: in vivo
recordedEndpoint: Cmax (ng/mL)
The response must be a number in ng/mL with no trailing unit.

Problem: Requested field: Cmax. Item: O=C(Nc1ccc2[nH]ncc2c1)N1CCN(c2cccc(Cl)c2Cl)CC1
Result: 199

Data credit: ChEMBL document CHEMBL5126626
